# System: thrombin (alpha-thrombin) (Homo sapiens, UniProt P00734;P00734 P00734:315-363,P00734:364-622)
# Assay notes: filter
# key: entry, value: pKd
In plain terms, pKd is the concentration in mol/L turned into minus its base-10 logarithm.

• ACTGCCTAGGTTGGGTAGGGTGGTGGCAGT (XNA, 2'-OMe G14, rest DNA) [ARC2626] = 8.80
• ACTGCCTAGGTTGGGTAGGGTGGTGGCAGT (XNA, 2'-OMe G19, rest DNA) [ARC2631] = 8.30
• UGCCTAGGTTGGGTAGGGTGGTGGCA (XNA, 2'-OMe 1-3,25,26, rest DNA) [ARC2839] = 9.24
• CCTCAGGGATGGTGTGGGTGGCTGAGG (ssDNA) [ARC1985] = 8.24

Now consider a different binder.
[Q] Give the measured pKd for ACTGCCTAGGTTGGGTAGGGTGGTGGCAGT (XNA, 2'-OMe C2, rest DNA) [ARC2614]
[A] 10.28
